Entry source: paper PMC9221442

test system: human lung fibroblasts IMR-90; assay type: cell-based; settings: Human Normal Fibroblast (IMR-90), 48 h; read-out: IC50 (cell proliferation)
pIC50: −log10 of the molar value. Where no end group is shown, it is not given here.
RECORDED_ENDPOINT: pIC50

[[record]]
substance = "FLSGIVGMLGKLF-NH2 [Temporin SHa]"
system_under_test = "human lung fibroblasts IMR-90"
result_value = "< 4.00"


###

assay: Hemolysis assay; format: cell-based, human; details: human
Where a SMILES comes first, the peptide text is derived from it.
RECORDED_ENDPOINT: hemolysis at 100 µM (%)

[[record]]
compound = "CC[C@H](C)[C@H](NC(=O)CNC(=O)[C@H](CO)NC(=O)[C@H](CC(C)C)NC(=O)[C@@H](N)Cc1ccccc1)C(=O)N[C@H](C(=O)NCC(=O)N[C@@H](CCSC)C(=O)N[C@@H](CC(C)C)C(=O)N[C@H](C)C(=O)N[C@@H](CCCCN)C(=O)N[C@@H](CC(C)C)C(=O)N[C@@H](Cc1ccccc1)C(N)=O)C(C)C [[G10a]-SHa] (HELM PEPTIDE1{F.L.S.G.I.V.G.M.L.[dA].K.L.F.[am]}$$$$V2.0)"
result_value = 102

